Data origin, for the record: PubChem BioAssay (NCI)

Test system: MDA-MB-435 melanoma
Assay Comment: NCI-60 one-dose screen, 48 h
Protocol Conditions: 10 µM
About 83,000 compounds went through this panel and 20% of them were active in at least one assay; those are over-represented in the sample as a whole. Active and inactive are the calls of the source. Rule for the calls: active = growth percent below 10; inactive = the rest.
Labels: Yes (active), No (inactive)

{"Molecule": "CC(=O)c1ccc(C)c(N)c1", "Group Label": "No"}
{"Molecule": "CCOC(=O)CNN", "Group Label": "No"}
{"Molecule": "CC(C)C(C#N)(C(C)C)C(C)C", "Group Label": "No"}
{"Molecule": "O=C(CCNNC(=O)c1ccncc1)NCc1ccccc1", "Group Label": "No"}
{"Molecule": "OC(c1ccccn1)C(O)c1ccccn1 (stereo not drawn)", "Group Label": "No"}
{"Molecule": "C=CC[N+](C)(C)C", "Group Label": "No"}
{"Molecule": "COc1ccc2c(c1)CCc1c-2n[nH]c1-c1[nH]nc2c1CCc1cc(OC)ccc1-2", "Group Label": "Yes"}
{"Molecule": "CCS(=O)(=O)CCCl", "Group Label": "No"}
{"Molecule": "COc1ccc(C2(O)CCCCC2)cc1", "Group Label": "No"}
{"Molecule": "CC1(C(=O)O)NC(C(=O)O)Cc2c1[nH]c1ccccc21 (stereo not drawn)", "Group Label": "No"}
{"Molecule": "CCN=c1cc2sc3cc(NCC)c(C)cc3nc-2cc1C", "Group Label": "Yes"}
{"Molecule": "C=CC(=O)OCCCCCCCC", "Group Label": "No"}
{"Molecule": "O=C(Cc1nc2ccc([N+](=O)[O-])cc2nc1CC(=O)c1ccccc1)c1ccccc1", "Group Label": "No"}
{"Molecule": "CCCCC1(CC)COC(CCC)OC1 (stereo not drawn)", "Group Label": "No"}
{"Molecule": "Cc1ccc(C)n1-c1ccsc1C(=O)NNC(=O)CCl", "Group Label": "No"}
{"Molecule": "O=[N+]([O-])c1ccc(-c2noc(-c3cccs3)n2)cc1", "Group Label": "No"}
{"Molecule": "CN(C)CCN(Cc1ccccc1)c1ccccc1", "Group Label": "No"}
{"Molecule": "CC(=O)c1cc2c(cc1F)C(C)(C)CCC2(C)C", "Group Label": "No"}
